System name: UniProt Q07889
Sequence (Q07889 564-1049): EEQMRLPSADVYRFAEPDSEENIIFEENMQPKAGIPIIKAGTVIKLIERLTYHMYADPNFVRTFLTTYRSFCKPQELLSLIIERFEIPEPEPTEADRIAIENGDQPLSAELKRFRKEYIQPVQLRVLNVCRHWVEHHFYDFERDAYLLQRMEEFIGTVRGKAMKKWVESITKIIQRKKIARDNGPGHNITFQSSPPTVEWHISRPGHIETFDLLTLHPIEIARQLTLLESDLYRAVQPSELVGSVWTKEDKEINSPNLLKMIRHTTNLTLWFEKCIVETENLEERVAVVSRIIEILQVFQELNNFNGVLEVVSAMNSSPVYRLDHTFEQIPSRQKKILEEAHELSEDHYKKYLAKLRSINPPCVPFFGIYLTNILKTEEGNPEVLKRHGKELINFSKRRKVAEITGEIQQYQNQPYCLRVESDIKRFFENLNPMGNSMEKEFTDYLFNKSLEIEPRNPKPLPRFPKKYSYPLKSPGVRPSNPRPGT
Test details: Surface Plasmon Resonance (SPR) SOS1 Binding Assay
Condition: biotinylated SOS1 (res. 564-1049), Biacore 8K, 25° C., kinetic or steady state fit, 1:1 binding; read-out: hSOS1 KD
Quantity name: Kd (nM)

>>> quantitative_readout("C[C@@H](NC(=O)c1cn(C23CCC(CC2)C3)c(=O)cc1N[C@H]1[C@@H]2CN(C)C[C@@H]21)c1cccc(C(F)F)c1F")
8
>>> quantitative_readout("C[C@@H](NC(=O)c1cn(C23CC(C2)C3)c(=O)cc1N[C@@H]1[C@@H]2CC[C@H]1CN(C)C2)c1cccc(C(F)F)c1F (single isomer, unassigned)")
5
>>> quantitative_readout("C[C@@H](NC(=O)c1cn(C2(C(F)F)CC2)c(=O)cc1NC1CCN(C)CC1)c1cccc(C(F)(F)F)c1F")
6
>>> quantitative_readout("C[C@@H](NC(=O)c1cn(C2(C(F)F)CC2)c(=O)cc1NC1CCN(C)CC1)c1cccc(C(C)(F)F)c1F")
8
>>> quantitative_readout("C[C@@H](NC(=O)c1cn([C@@H]2CC23CC3)c(=O)cc1N[C@H]1[C@@H]2CN(C)C[C@@H]21)c1cccc(C(F)F)c1F (single isomer, unassigned)")
11
>>> quantitative_readout("C[C@@H](NC(=O)c1cn(C2(C(F)F)CC2)c(=O)cc1N[C@H]1CCN(C)C[C@H]1F)c1cccc(C(F)F)c1F (single isomer, unassigned)")
9
>>> quantitative_readout("CO[C@@H]1CN(C)CC[C@H]1Nc1cc(=O)n(C2CCOCC2)cc1C(=O)N[C@H](C)c1cccc(C(F)(F)F)c1C (single isomer, unassigned)")
27
>>> quantitative_readout("C[C@@H](NC(=O)c1cn(C23CC(C2)C3)c(=O)cc1N[C@H]1CN2CCC1CC2)c1cccc(C(F)F)c1F")
11
>>> quantitative_readout("C[C@H](Nc1cc(=O)n(C2(C(F)F)CC2)cc1C(=O)N[C@H](C)c1cccc(C(F)F)c1F)c1cncn1C")
84
>>> quantitative_readout("C[C@@H](NC(=O)c1cn(C2(C(F)F)CC2)c(=O)cc1N[C@@H]1CCN(C)C[C@@H]1F)c1cccc(C(F)F)c1F (single isomer, unassigned)")
7
>>> quantitative_readout("C[C@@H](NC(=O)c1cn([C@H]2CCOC[C@@H]2F)c(=O)cc1NC1CCN(C)CC1)c1cccc(C(F)F)c1F")
8
>>> quantitative_readout("C[C@@H](NC(=O)c1cn([C@@H]2CCOC[C@H]2F)c(=O)cc1N[C@H]1[C@@H]2CN(C)C[C@@H]21)c1cccc(C(F)F)c1F")
3
>>> quantitative_readout("C[C@@H](NC(=O)c1cn(C2CC3(C2)CC(F)(F)C3)c(=O)cc1N[C@H]1CCN(C)C[C@H]1F)c1cccc(C(F)F)c1F")
3
>>> quantitative_readout("C[C@@H](NC(=O)c1cn(C2(C(F)F)CC2)c(=O)cc1N[C@@H]1C[C@@H]2CN(C)C[C@@H]2C1)c1cccc(C(F)F)c1F (single isomer, unassigned)")
13
>>> quantitative_readout("C[C@@H](NC(=O)c1cn(C2(C(F)(F)F)CC2)c(=O)cc1N[C@@H]1[C@@H]2CC[C@H]1CN(C)C2)c1cccc(C(F)F)c1F (single isomer, unassigned)")
12
>>> quantitative_readout("C[C@@H](NC(=O)c1cn([C@H]2C[C@@H]2C2CC2)c(=O)cc1N[C@H]1[C@@H]2CN(C)C[C@@H]21)c1cccc(C(F)F)c1F (single isomer, unassigned)")
3
>>> quantitative_readout("C[C@@H](NC(=O)c1cn(C23CC(C2)C3)c(=O)cc1N[C@@H]1CN2CCC1CC2)c1cccc(C(F)F)c1F")
3
>>> quantitative_readout("C[C@@H](NC(=O)c1cn([C@@H]2C[C@H]2C2CC2)c(=O)cc1NC1CCN(C)CC1)c1cccc(C(F)F)c1F (single isomer, unassigned)")
2
>>> quantitative_readout("C[C@@H](NC(=O)c1cn(C2(C(F)F)CC2)c(=O)cc1NC[C@@H]1CC2CCN1CC2)c1cccc(C(F)F)c1F")
12
>>> quantitative_readout("C[C@@H](NC(=O)c1cn(C2CC2)c(=O)cc1N[C@H]1[C@@H]2CC[C@H]1CN(C)C2)c1cccc(C(F)F)c1F (single isomer, unassigned)")
33
>>> quantitative_readout("C[C@@H](NC(=O)c1cn(C2(C(F)F)CC2)c(=O)cc1N[C@H]1CCNC[C@H]1F)c1cccc(C(F)F)c1F (single isomer, unassigned)")
4
>>> quantitative_readout("C[C@@H](NC(=O)c1cn([C@H]2CCOC[C@@H]2F)c(=O)cc1N[C@H]1[C@@H]2CN(C)C[C@@H]21)c1cccc(C(F)F)c1F")
8
>>> quantitative_readout("C[C@@H](NC(=O)c1cn(C2(C(F)F)CC2)c(=O)cc1NC1CCN(C)CC1)c1cccc(C(F)F)c1F")
3
